- system_name: AEA-DA lipid probe targets in Neuro2a cells (Mus musculus)
- Sequence (Q91YQ5 26-608): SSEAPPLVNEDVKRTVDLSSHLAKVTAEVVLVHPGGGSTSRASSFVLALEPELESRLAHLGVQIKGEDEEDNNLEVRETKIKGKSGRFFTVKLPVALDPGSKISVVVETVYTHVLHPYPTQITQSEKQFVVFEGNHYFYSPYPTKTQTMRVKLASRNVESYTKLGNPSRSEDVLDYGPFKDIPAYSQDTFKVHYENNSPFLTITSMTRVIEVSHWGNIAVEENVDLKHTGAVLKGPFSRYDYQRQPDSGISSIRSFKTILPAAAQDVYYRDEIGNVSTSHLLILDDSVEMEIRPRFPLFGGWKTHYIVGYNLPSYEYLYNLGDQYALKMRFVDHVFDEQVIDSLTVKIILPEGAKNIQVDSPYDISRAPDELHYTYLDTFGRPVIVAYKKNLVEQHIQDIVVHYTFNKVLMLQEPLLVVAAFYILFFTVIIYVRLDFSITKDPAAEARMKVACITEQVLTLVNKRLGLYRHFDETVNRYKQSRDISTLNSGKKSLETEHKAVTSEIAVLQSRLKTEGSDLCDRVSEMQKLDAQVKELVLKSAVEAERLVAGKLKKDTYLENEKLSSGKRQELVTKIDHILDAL
- assay_context: competitor 25 μM
Catalogue of SILAC ratio Rpn1 values
assay_endpoint: SILAC ratio Rpn1

1) O=C(/C=C/c1cccnc1)NCCCCC1CCN(C(=O)c2ccccc2)CC1 [FK-866, reference compound] | 1.2
2) CN1CCN(C(=O)c2[nH]c3ccc([N+](=O)[O-])cc3c2-c2ccccc2)CC1 | 1.4
3) C=CCN(C)CCCCCCOc1ccc(C(=O)c2ccc(Br)cc2)c(F)c1 [Ro 48-8071, reference compound] | 0.9
4) CN1CCN(C(=O)c2c(-c3ccccc3)c3cc([N+](=O)[O-])ccc3n2C)CC1 | 1.2

Data origin, for the record: patent US10168342B2
